- target-or-test-system: GABA-A receptor; alpha-5/beta-3/gamma-2 (Homo sapiens, UniProt P18507+P28472+P31644)
- Sequence (P18507 whole entry): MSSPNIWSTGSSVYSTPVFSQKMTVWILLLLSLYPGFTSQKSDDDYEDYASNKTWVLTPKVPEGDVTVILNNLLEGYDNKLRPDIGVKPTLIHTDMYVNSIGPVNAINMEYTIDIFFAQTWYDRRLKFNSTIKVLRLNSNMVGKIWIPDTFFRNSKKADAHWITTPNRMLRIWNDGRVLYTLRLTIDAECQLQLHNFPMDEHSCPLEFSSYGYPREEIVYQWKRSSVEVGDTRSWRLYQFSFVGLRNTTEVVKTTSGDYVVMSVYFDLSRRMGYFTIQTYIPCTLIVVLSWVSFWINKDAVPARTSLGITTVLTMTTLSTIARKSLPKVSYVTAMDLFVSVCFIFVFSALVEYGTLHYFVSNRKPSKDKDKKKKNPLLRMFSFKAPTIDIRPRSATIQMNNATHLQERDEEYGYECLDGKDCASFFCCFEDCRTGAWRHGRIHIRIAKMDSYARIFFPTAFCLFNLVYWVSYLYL
- Sequence (P28472 whole entry): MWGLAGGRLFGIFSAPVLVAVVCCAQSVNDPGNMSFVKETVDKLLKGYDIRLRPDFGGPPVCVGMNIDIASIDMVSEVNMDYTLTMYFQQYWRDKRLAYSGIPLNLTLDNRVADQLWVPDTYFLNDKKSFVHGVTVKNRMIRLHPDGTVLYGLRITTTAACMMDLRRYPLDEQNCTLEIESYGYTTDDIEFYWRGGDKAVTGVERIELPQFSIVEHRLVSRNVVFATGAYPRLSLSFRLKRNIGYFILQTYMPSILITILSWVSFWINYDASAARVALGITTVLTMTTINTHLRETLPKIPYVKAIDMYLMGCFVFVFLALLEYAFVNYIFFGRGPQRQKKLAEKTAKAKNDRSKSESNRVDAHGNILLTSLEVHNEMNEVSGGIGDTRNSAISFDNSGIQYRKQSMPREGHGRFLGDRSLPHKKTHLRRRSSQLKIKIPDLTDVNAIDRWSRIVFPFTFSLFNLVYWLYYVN
- Sequence (P31644 whole entry): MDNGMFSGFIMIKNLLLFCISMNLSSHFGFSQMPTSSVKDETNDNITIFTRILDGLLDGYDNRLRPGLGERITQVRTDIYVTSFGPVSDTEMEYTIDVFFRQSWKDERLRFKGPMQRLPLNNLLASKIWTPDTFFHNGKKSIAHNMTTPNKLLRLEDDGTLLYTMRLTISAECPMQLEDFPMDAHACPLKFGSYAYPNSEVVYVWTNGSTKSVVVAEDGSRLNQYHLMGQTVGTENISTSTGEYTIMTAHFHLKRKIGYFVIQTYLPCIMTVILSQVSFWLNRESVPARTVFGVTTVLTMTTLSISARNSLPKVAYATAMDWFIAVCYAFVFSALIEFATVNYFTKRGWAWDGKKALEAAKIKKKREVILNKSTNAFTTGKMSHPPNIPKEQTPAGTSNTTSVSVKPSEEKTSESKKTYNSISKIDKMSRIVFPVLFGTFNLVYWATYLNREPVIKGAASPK
- protocol-summary: Displacement of [3H]flunitrazepam from human recombinant GABAA alpha-5-beta-3-gamma-2 receptor expressed in HEK cells by liquid scintillation counting
Recorded Ki by entry
Report the figure in nM without appending any unit label.

Some solved entries appear below for comparison.
O=C(OCC(F)(F)F)c1cc2c(cn1)[nH]c1ccc(-c3ccco3)cc12; 127
O=C(OCC(F)(F)F)c1cc2c(cn1)[nH]c1ccc(I)cc12; 122
C#Cc1ccc2[nH]c3cnc(C(=O)OCC(F)(F)F)cc3c2c1; 124

// next item, Ki requested
In: Requested read-out: Ki. Entry: CC(C)(C)OC(=O)c1cc2c(cn1)[nH]c1ccc(-c3ccccc3)cc12
Out: 76.5
